Hello, the source for this data is patent US9212147B2, in case you need it.

Biological target: recombinant human DAAO protein (Homo sapiens (Human), UniProt P14920)
Assay: DAAO inhibitory activity test (H2O2 production, Amplex red/HRP fluorescence)
Format: biochemical
Conditions: recombinant human DAAO 15 nM, D-alanine substrate, FAD, pH 7.5
pIC50: −log10 of the molar value.
Parameter: pIC50. Scope: all listed entries.

- structure: "O=c1[nH]nc(CCc2cccc3ccccc23)cc1O"
  pIC50: 8.64
- structure: "O=c1[nH]cc(CCC2CCCCC2)cc1O"
  pIC50: 7.36
- structure: "O=c1[nH]nc(CCc2ccc(-c3ccccc3)cc2)cc1O"
  pIC50: 8.92
- structure: "COc1ccc(SCc2cc(=O)c(O)n[nH]2)cc1"
  pIC50: 8.28
- structure: "O=c1[nH]nc(CCCCc2ccccc2)cc1O"
  pIC50: 8.60
- structure: "O=c1[nH]nc(CCc2ccc(OC(F)(F)F)cc2)cc1O"
  pIC50: 8.09
- structure: "Cc1cccc(CCc2cc(O)c(=O)[nH]n2)c1"
  pIC50: 8.60
- structure: "Cc1ccccc1CCc1cc(O)c(=O)[nH]n1"
  pIC50: 8.48
- structure: "CCCCc1cc(O)c(=O)[nH]n1"
  pIC50: 8.16
- structure: "Cc1cc(C)cc(CCc2cc(O)c(=O)[nH]n2)c1"
  pIC50: 8.33
- structure: "COCCCc1cc(O)c(=O)[nH]n1"
  pIC50: 8.09
- structure: "O=c1cc(COc2ccc(F)cc2)[nH]nc1O"
  pIC50: 8.54
- structure: "O=c1[nH]nc(CCc2ccc(F)cc2F)cc1O"
  pIC50: 8.66
- structure: "Cc1ccc(CCc2cc(O)c(=O)[nH]n2)cc1"
  pIC50: 8.21
- structure: "CC(C)(C)c1ccc(CCc2cc(O)c(=O)[nH]n2)cc1"
  pIC50: 8.18
- structure: "O=c1cc(COc2cccc(F)c2)[nH]nc1O"
  pIC50: 8.64
